# measurementDescription: alamarBlue cytotoxicity assay
# Type: cell-based
# conditionsUsed: mouse, J774A.1 murine macrophage cell line (ATCC TIB-67); J774A.1, 24 h, mean ± SD; read-out: Murine macrophages CC50
readoutKind: CC50 at 24 h

Exam item: Give the measured CC50 at 24 h of C[C@@H]1[C@H](O)[C@@H](C)/C=C/C=C/C=C/C=C/C=C/C=C/C=C/[C@H](O[C@@H]2O[C@H](C)[C@@H](O)[C@H](N)[C@@H]2O)C[C@@H]2O[C@](O)(C[C@@H](O)C[C@@H](O)[C@H](O)CC[C@@H](O)C[C@@H](O)CC(=O)O[C@H]1C)C[C@H](O)[C@H]2C(=O)O [Amphotericin B, reference compound] .
Marked response: > 200 µM

Entry source: paper PMC10258243
